system: PLIN3 (Homo sapiens, UniProt O60664)
Construct: Plasmids containing human full-length PLIN3 or fragments thereof were obtained by PCR amplification; made in house; host or cells: Escherichia coli BL21 (DE3) or NiCo21 (DE3)
Sequence (O60664 1-434): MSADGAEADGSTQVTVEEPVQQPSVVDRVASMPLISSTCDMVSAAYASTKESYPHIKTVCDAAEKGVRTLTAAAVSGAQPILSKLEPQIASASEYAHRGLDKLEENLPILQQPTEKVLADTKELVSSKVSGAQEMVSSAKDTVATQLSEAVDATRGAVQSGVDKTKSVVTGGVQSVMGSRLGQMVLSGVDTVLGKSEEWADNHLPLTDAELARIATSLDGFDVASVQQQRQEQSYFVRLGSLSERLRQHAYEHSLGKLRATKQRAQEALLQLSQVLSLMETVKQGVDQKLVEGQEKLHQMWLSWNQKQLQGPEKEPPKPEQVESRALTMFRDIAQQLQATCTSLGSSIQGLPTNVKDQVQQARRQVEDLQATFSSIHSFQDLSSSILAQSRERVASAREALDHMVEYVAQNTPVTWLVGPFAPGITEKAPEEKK
test-name: Microscale thermophoresis (MST) binding of lipids, liposomes or ALDs to full-length WT PLIN3
assay-readout: pKd
Convention used: pKd is expressed as -log10 of the molar concentration.

Entry "CCCCCCC(=O)OC[C@H](COP(=O)([O-])OCC[N+](C)(C)C)OC(=O)CCCCCC" has what pKd?
3.67
